- studySystem: T1, CXCR3-A (classic CXC chemokine receptor 3) (human, UniProt P49682-1 1-368)
- T1 sequence (looked up): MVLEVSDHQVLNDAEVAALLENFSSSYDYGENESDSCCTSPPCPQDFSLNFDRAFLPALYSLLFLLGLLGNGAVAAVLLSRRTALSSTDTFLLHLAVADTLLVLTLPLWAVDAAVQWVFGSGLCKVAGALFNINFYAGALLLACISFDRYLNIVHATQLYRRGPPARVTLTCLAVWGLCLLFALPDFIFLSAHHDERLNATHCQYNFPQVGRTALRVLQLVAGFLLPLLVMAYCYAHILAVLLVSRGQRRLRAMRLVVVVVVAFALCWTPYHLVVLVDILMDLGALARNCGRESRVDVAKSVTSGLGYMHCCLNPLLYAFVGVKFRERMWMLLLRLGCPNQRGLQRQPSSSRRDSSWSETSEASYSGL
- procedureText: radioligand binding
endpointName: IC50 (nM)

(P) CXCL9/Mig (ligand, human, UniProt Q07325 23-125, looked up) TPVVRKGRCSCISTNQGTIHLQSLKDLKQFAPSPSCEKIEIIATLKNGVQTCLNPDSADVKELIKKWEKQVSQKKKQKNGKKHQKKKVLKVRKSQRSRQKKTT
(Q) CXCL11/I-TAC (ligand, human, UniProt O14625 22-94, looked up) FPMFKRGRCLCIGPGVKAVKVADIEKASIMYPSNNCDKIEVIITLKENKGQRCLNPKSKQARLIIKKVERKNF
Input: Lower IC50: P or Q ? Pick one and reply with its label.
Output: Q
(Q: 0.41 nM, P: 33 nM)

Value source: paper PMC2193908
